- study.system: CDK2 (Homo sapiens, UniProt P24941)
- Construct: endogenous in cells; host or cells: MDA-MB-231
- procedure.summary: CDK protein degradation activity (Western blotting), CDK2
- Assay type: cell-based
- assay.setup: MDA-MB-231 cells, 10 μM, 16 hours, Western blot
- Method: In order to evaluate the CDK protein degradation activity of the compounds according to the present invention, the following experiment was conducted. MDA-MB-231 cells were seeded at 5×10^5 cells per well in a 6-well plate. The next day, the compounds were treated in each well to achieve final concentrations of 100 nM, 1 μM, and 10 μM. […] Cell lysates were quantified and separated by size using sodium dodecyl sulfate-polyacrylamide gel electrophoresis (SDS-PAGE). […]
measurement.name: Enzyme degradation CDK2 (% remaining) @ 10 μM (%)

O=C1CCC(N2C(=O)c3cc(F)c(N4CCC5(CC4)CC(N4CCN(c6ccc(Nc7ncnc8c7ncn8[C@H]7C[C@@H](NC(=O)c8c(Cl)cccc8Cl)C7)cc6)CC4)C5)cc3C2=O)C(=O)N1 (stereo partly drawn) [Compound 316]
50
O=C1CC[C@H](N2C(=O)c3cccc(N4CCC5(CC4)CC(N4CCC(c6ccc(Nc7ncnc8c7ncn8C7CC(NC(=O)Cc8ccccc8)C7)cc6)CC4)C5)c3C2=O)C(=O)N1 (stereo partly drawn) [Compound 297]
40

====

- study.system: CDK2 (Homo sapiens, UniProt P24941)
- Construct: endogenous in cells; host or cells: MDA-MB-231
- procedure.summary: CDK protein degradation activity (Western blotting), CDK2
- Format: cell-based
- assay.setup: MDA-MB-231 cells, 1 μM, 16 hours, Western blot
measurement.name: Enzyme degradation CDK2 (% remaining) @ 1 μM (%)

CC(=O)N[C@H]1C[C@@H](n2cnc3c(NCC4CCN(CC5CCN(C(=O)COc6ccc7c(c6)C(=O)N([C@H]6CCC(=O)NC6=O)C7=O)CC5)CC4)ncnc32)C1
70

[1] O=C1CC[C@H](N2C(=O)c3cccc(N4CCC5(CC4)CC(N4CCN(c6ccc(Nc7ncnc8c7ncn8[C@H]7C[C@@H](NC(=O)Cc8ccccc8)C7)cc6)CC4)C5)c3C2=O)C(=O)N1
[2] O=C1CC[C@H](N2C(=O)c3cc(F)c(N4CCC(C(=O)N5CCC(CN6CCN(c7ccc(Nc8ncnc9c8ncn9C8CC(NC(=O)c9cccc(F)n9)C8)cc7)CC6)CC5)CC4)cc3C2=O)C(=O)N1 (some centres unmarked)
input: Lowest Enzyme degradation CDK2 (% remaining) @ 1 μM? choose 1 or 2 Label of pick, please.
output: 2
(2: 40%, 1: 60%)

====

- study.system: CDK2 (Homo sapiens)
- Construct: endogenous in cells; host or cells: MDA-MB-231
- procedure.summary: CDK protein degradation activity (Western blotting), CDK2
- Assay type: cell-based
- assay.setup: MDA-MB-231 cells, 1 μM, 16 hours, Western blot
measurement.name: Enzyme degradation CDK2 (% remaining) @ 1 μM (%)

[1] O=C1CC[C@H](N2C(=O)c3ccc(N4CCC(CN5CCC(CNc6ncnc7c6ncn7[C@H]6C[C@@H](NC(=O)c7c(Cl)cccc7Cl)C6)CC5)CC4)cc3C2=O)C(=O)N1
[2] Cc1cccc(C(=O)NC2CC(n3cnc4c(NCc5ccc(OCC6CCN(c7ccc8c(c7)C(=O)N([C@H]7CCC(=O)NC7=O)C8=O)CC6)cc5)ncnc43)C2)n1 (some centres unmarked)
input: 1 or 2 : whose Enzyme degradation CDK2 (% remaining) @ 1 μM is greater? Label of pick, please.
output: 2
(2: 60%, 1: 30%)

====

- study.system: CDK9 (Homo sapiens)
- Construct: endogenous in cells; host or cells: MDA-MB-231
- procedure.summary: CDK protein degradation activity (Western blotting), CDK9
- Format: cell-based
- assay.setup: MDA-MB-231 cells, 0.1 μM, 16 hours, Western blot
measurement.name: Enzyme degradation CDK9 (% remaining) @ 0.1 μM (%)

Cc1cccc(C(=O)NC2CC(n3cnc4c(NC5CCN(C(=O)CC6CCN(C(=O)CNc7ccc8c(c7)C(=O)N([C@H]7CCC(=O)NC7=O)C8=O)CC6)CC5)ncnc43)C2)n1 (stereo partly shown) [Compound 51]
70
O=C1CC[C@H](N2C(=O)c3cccc(OCC(=O)N4CCC5(CC(N6CCN(c7ccc(Nc8ncnc9c8ncn9[C@H]8C[C@@H](NC(=O)Cc9ccccc9)C8)cc7)CC6)C5)C4)c3C2=O)C(=O)N1 (stereo partly shown) [Compound 264]
90
O=C1CC[C@H](N2C(=O)c3cccc(OCC(=O)N4CCC(CN5CCC(CNc6ncnc7c6ncn7C6CC(NC(=O)c7c(Cl)cccc7Cl)C6)CC5)CC4)c3C2=O)C(=O)N1 (stereo partly shown) [Compound 168]
80
O=C1CC[C@H](N2C(=O)c3ccc(OCC(=O)N4CCC(CN5CCN(c6ccc(Nc7ncnc8c7ncn8C7CC(NC(=O)Cc8ccccc8)C7)cc6)CC5)CC4)cc3C2=O)C(=O)N1 (stereo partly shown) [Compound 175]
80

====

- study.system: CDK9 (Homo sapiens, UniProt P50750)
- Construct: endogenous in cells; host or cells: MDA-MB-231
- Sequence (P50750 whole entry): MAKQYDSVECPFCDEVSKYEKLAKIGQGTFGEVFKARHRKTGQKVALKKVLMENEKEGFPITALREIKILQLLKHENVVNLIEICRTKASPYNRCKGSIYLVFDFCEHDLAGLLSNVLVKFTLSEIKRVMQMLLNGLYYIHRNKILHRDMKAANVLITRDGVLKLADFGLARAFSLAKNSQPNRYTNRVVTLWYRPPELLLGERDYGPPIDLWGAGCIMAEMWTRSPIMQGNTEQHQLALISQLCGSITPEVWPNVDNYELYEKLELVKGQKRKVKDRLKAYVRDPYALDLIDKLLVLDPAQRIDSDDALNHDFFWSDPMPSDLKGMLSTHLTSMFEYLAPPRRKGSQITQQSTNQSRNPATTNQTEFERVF
- procedure.summary: CDK protein degradation activity (Western blotting), CDK9
- Format: cell-based
- assay.setup: MDA-MB-231 cells, 10 μM, 16 hours, Western blot
measurement.name: Enzyme degradation CDK9 (% remaining) @ 10 μM (%)

Cc1cccc(C(=O)NC2CC(n3cnc4c(NC5CCN(C(=O)CC6CCN(C(=O)CNc7ccc8c(c7)C(=O)N([C@H]7CCC(=O)NC7=O)C8=O)CC6)CC5)ncnc43)C2)n1 (some centres unmarked)
0

[1] Cc1cccc(C(=O)N[C@H]2C[C@@H](n3cnc4c(NC5CCN(CCCCCCNc6ccc7c(c6)C(=O)N([C@H]6CCC(=O)NC6=O)C7=O)CC5)ncnc43)C2)n1
[2] COc1ccc(C(=O)N2CC(N3CCC4(CC3)CC(N3CCN(c5ccc(Nc6ncnc7c6ncn7[C@H]6C[C@@H](NC(=O)Cc7ccccc7)C6)cc5)CC3)C4)C2)cc1N1CCC(=O)NC1=O
input: 1 or 2 : whose Enzyme degradation CDK9 (% remaining) @ 10 μM is greater? Label of pick, please.
output: 2

====

- study.system: CDK9 (Homo sapiens)
- Construct: endogenous in cells; host or cells: MDA-MB-231
- procedure.summary: CDK protein degradation activity (Western blotting), CDK9
- Format: cell-based
- assay.setup: MDA-MB-231 cells, 10 μM, 16 hours, Western blot
- Method: In order to evaluate the CDK protein degradation activity of the compounds according to the present invention, the following experiment was conducted. MDA-MB-231 cells were seeded at 5×10^5 cells per well in a 6-well plate. The next day, the compounds were treated in each well to achieve final concentrations of 100 nM, 1 μM, and 10 μM. […] Cell lysates were quantified and separated by size using sodium dodecyl sulfate-polyacrylamide gel electrophoresis (SDS-PAGE). […]
measurement.name: Enzyme degradation CDK9 (% remaining) @ 10 μM (%)

Example results:
Cc1cccc(C(=O)NC2CC(n3cnc4c(NC5CCN(CCOC6CCN(C(=O)CNc7cccc8c7C(=O)N([C@H]7CCC(=O)NC7=O)C8=O)CC6)CC5)ncnc43)C2)n1 (stereo partly shown)
30
Cc1cccc(C(=O)NC2CC(n3cnc4c(NCCC5CCN(CC6CCN(c7ccc8nnn([C@H]9CCC(=O)NC9=O)c(=O)c8c7)CC6)CC5)ncnc43)C2)n1 (stereo partly shown)
0

[P] Cc1cccc(C(=O)NC2CC(n3cnc4c(NCCCN5CCN(CC6CCN(C(=O)COc7ccc([C@@H]8CCC(=O)NC8=O)cc7)CC6)CC5)ncnc43)C2)n1 (stereo partly shown)
[Q] O=C1CC[C@H](n2nnc3ccc(N4CCN(CCCC5CCN(c6ccc(Nc7ncnc8c7ncn8C7CC(NC(=O)Cc8ccccc8)C7)cc6)CC5)CC4)cc3c2=O)C(=O)N1 (stereo partly shown)
input: Lowest Enzyme degradation CDK9 (% remaining) @ 10 μM? choose P or Q Label of pick, please.
output: P

====

- study.system: CDK9 (Homo sapiens, UniProt P50750)
- Construct: endogenous in cells; host or cells: MDA-MB-231
- procedure.summary: CDK protein degradation activity (Western blotting), CDK9
- Type: cell-based
- assay.setup: MDA-MB-231 cells, 0.1 μM, 16 hours, Western blot
measurement.name: Enzyme degradation CDK9 (% remaining) @ 0.1 μM (%)

Cc1cccc(C(=O)N[C@H]2C[C@H](n3cnc4c(NCC5CCN(C(=O)CCCCCNC(=O)CNc6ccc7c(c6)C(=O)N([C@@H]6CCC(=O)NC6=O)C7=O)CC5)ncnc43)C2)n1 (stereo in doubt)
80
Cc1cccc(C(=O)N[C@H]2C[C@@H](n3cnc4c(NC5CCN(CCOC6CCN(c7ccc8c(c7)C(=O)N([C@H]7CCC(=O)NC7=O)C8=O)CC6)CC5)ncnc43)C2)n1
40

[1] COc1ccc(C(=O)N2CC(CN3CCC4(CC3)CC(N3CCN(c5ccc(Nc6ncnc7c6ncn7[C@H]6C[C@@H](NC(=O)Cc7ccccc7)C6)cc5)CC3)C4)C2)cc1N1CCC(=O)NC1=O
[2] CC(=O)NC1CC(n2cnc3c(NCC4CCN(CC5CCN(c6cccc7c6C(=O)N([C@H]6CCC(=O)NC6=O)C7=O)CC5)CC4)ncnc32)C1 (stereo partly shown)
[3] O=C1CCN(c2coc3cc(C(=O)N4CCC(CC(=O)N5CCN(c6ccc(Nc7ncnc8c7ncn8[C@H]7C[C@@H](NC(=O)Cc8ccccc8)C7)cc6)CC5)CC4)ccc23)C(=O)N1
input: Task field, ranking: reported Enzyme degradation CDK9 (% remaining) @ 0.1 μM, descending order. As an answer, provide the labels arranged in the order called for.
output: 2, 1, 3

Values compiled from patent US20260125382A1.
